tested on: Helicobacter pylori; test: Inhibition of Helicobacter pyroli PFOR expressed in Escherichia coli at 40 uM
Observed Property: inhibition (%)
Just the number please, in %, no unit attached.

# query: inhibition of entry CC(=O)Oc1ccccc1C(=O)Nc1ncc([N+](=O)[O-])s1 [NITAZOXANIDE]
54

# query: inhibition of entry O=C(Nc1ncc([N+](=O)[O-])s1)c1cccs1 [TENONITROZOLE]
50

Kindly consider the entry below.
# query: inhibition of entry `O=C(Nc1sc([N+](=O)[O-])cc1[N+](=O)[O-])c1ccoc1`
66

====

test system: Helicobacter pylori; experiment: Inhibition of Helicobacter pyroli PFOR expressed in Escherichia coli at 40 uM
We use 60% as the dividing line for inhibition: on or above the line is condition met, below is condition not met.

Record excerpt, results attached:
Say whether `CCCCCC(=O)Nc1nc(Cl)c([N+](=O)[O-])s1` shows inhibition of 60% or more.
condition met

Say whether `O=C(Nc1sc([N+](=O)[O-])cc1[N+](=O)[O-])c1cccs1` shows inhibition of 60% or more.
condition met

Say whether `O=C(Nc1sc([N+](=O)[O-])cc1[N+](=O)[O-])c1cccc(C(F)(F)F)c1` shows inhibition of 60% or more.
condition not met

Continuing:
Say whether `O=C(Nc1ncc([N+](=O)[O-])s1)c1ccoc1` shows inhibition of 60% or more.
condition not met

Say whether `O=C(Nc1sc([N+](=O)[O-])cc1[N+](=O)[O-])c1ccccc1` shows inhibition of 60% or more.
condition not met

Say whether `O=C(Nc1nc(Cl)c([N+](=O)[O-])s1)c1cccs1` shows inhibition of 60% or more.
condition not met

Say whether `CCCCCC(=O)Nc1sc([N+](=O)[O-])cc1[N+](=O)[O-]` shows inhibition of 60% or more.
condition met

Say whether `CCCCCC(=O)Nc1ncc([N+](=O)[O-])s1` shows inhibition of 60% or more.
condition met

Say whether `O=C(Nc1ncc([N+](=O)[O-])s1)c1cccc(C(F)(F)F)c1` shows inhibition of 60% or more.
condition not met

Say whether `O=C(Nc1nc(Cl)c([N+](=O)[O-])s1)c1cccc(C(F)(F)F)c1` shows inhibition of 60% or more.
condition not met

====

system: Helicobacter pylori; experiment: Antimicrobial activity against Helicobacter pylori; type: functional
Class definitions on MIC: lower segment: < 1 µM; middle segment: ≥ 1 µM and < 4 µM; upper segment: ≥ 4 µM

Quick check: band for `O=C(Nc1nc(Cl)c([N+](=O)[O-])s1)c1cccc(C(F)(F)F)c1`
upper segment

Continuing:
Quick check: band for `O=C(Nc1sc([N+](=O)[O-])cc1[N+](=O)[O-])c1cccc(C(F)(F)F)c1`
lower segment

Quick check: band for `O=C(Nc1ncc([N+](=O)[O-])s1)c1ccoc1`
lower segment

Quick check: band for `CCCCCC(=O)Nc1sc([N+](=O)[O-])cc1[N+](=O)[O-]`
middle segment

Quick check: band for `O=C(Nc1sc([N+](=O)[O-])cc1[N+](=O)[O-])c1cccs1`
middle segment

Quick check: band for `O=C(Nc1ncc([N+](=O)[O-])s1)c1cccc(C(F)(F)F)c1`
middle segment

Quick check: band for `CCCCCC(=O)Nc1ncc([N+](=O)[O-])s1`
lower segment

Quick check: band for `O=C(Nc1nc(Cl)c([N+](=O)[O-])s1)c1ccccc1`
upper segment

Quick check: band for `O=C(Nc1nc(Cl)c([N+](=O)[O-])s1)c1cccs1`
upper segment

Quick check: band for `CCCCCC(=O)Nc1nc(Cl)c([N+](=O)[O-])s1`
lower segment

Quick check: band for O=C(Nc1ncc([N+](=O)[O-])s1)c1cccs1 [TENONITROZOLE]
middle segment

Quick check: band for `O=C(Nc1sc([N+](=O)[O-])cc1[N+](=O)[O-])c1ccoc1`
middle segment

Quick check: band for CC(=O)Oc1ccccc1C(=O)Nc1ncc([N+](=O)[O-])s1 [NITAZOXANIDE]
upper segment

Quick check: band for `O=C(Nc1sc([N+](=O)[O-])cc1[N+](=O)[O-])c1ccccc1`
middle segment
